# Tested on: SF-295 CNS
# measurement.notes: NCI-60 one-dose screen, 48 h (100 = growth as untreated, 0 = no growth, -100 = all killed)
# test.settings: 10 µM unless noted
This is part of a sample that, as a whole, favours compounds with a hit. Of some 83,000 tested, about 20% had one in any assay.
Short version: growth at least 90% is True, less is False.

>  <molecule>
Cc1ccc2c(N/N=C\c3ccco3)cc(C)nc2n1

>  <cat>
False

$$$$
>  <molecule>
CCCCCCCCCCCCCCCC[N+]1(C)CCOCC1

>  <cat>
False

$$$$
>  <molecule>
CC(=O)N(CC(O)CO)c1c(I)c(C(=O)NCCO)c(I)c(C(=O)NCC(O)CO)c1I (stereo not given)

>  <cat>
True

$$$$
>  <molecule>
CC1=C(C/C=C(\C)CCC[C@H](C)CCC[C@H](C)CCCC(C)C)C(=O)c2ccccc2C1=O

>  <cat>
True

$$$$
>  <molecule>
Nc1cccc2c(=S)c3ccccc3[nH]c12

>  <cat>
True

$$$$
>  <molecule>
N#C/C(=C\c1ccc[nH]1)c1cc2ccccc2[nH]1

>  <cat>
False

$$$$
>  <molecule>
C=CC[P+](c1ccccc1)(c1ccccc1)c1ccccc1

>  <cat>
False

$$$$
>  <molecule>
CCC(C)Oc1cc(/C=N/NC(=O)c2cnn3c2NC(c2ccccc2)C3)ccc1OC (stereo not given)

>  <cat>
False

$$$$
>  <molecule>
Nc1ccccc1-c1n[nH]c(=O)[nH]c1=O

>  <cat>
False

$$$$
>  <molecule>
COc1cc(NC(=O)COc2ccccc2)c(C(N)=O)cc1OC

>  <cat>
False

$$$$
>  <molecule>
CC1CCCCN1S(=O)(=O)c1ccc(CN=C=S)cc1 (stereo not given)

>  <cat>
True

$$$$
>  <molecule>
COc1ncc(F)c(OC)n1

>  <cat>
True

$$$$
>  <molecule>
O=C(N/N=C/c1ccc2c(c1)OCO2)c1cnn2c1NC(c1ccccc1)C2 (stereo not given)

>  <cat>
False

$$$$
>  <molecule>
O=C(N/N=C/c1ccc(F)cc1)c1[nH]c2ccc(I)cc2c1-c1ccccc1

>  <cat>
False

$$$$
>  <molecule>
O=S(=O)(OCCO)c1ccccc1

>  <cat>
True

$$$$
>  <molecule>
COc1cc(C2=NN(c3ccc(S(N)(=O)=O)cc3)C(c3ccc(Cl)cc3)C2)cc(OC)c1OC (stereo not given)

>  <cat>
False

$$$$
>  <molecule>
CCN(CC)c1ccc(/C=C(\C#N)c2cc3ccccc3[nH]2)cc1

>  <cat>
False

$$$$
>  <molecule>
Fc1ccccc1Nc1ccc2nnc(-c3ccncc3)n2n1

>  <cat>
True

$$$$
>  <molecule>
CCOc1ccc(/C=N\N2CCCCCC2)cc1OCC

>  <cat>
True

$$$$
>  <molecule>
COc1ccc(-c2nc(Nc3ccc(F)cc3)nc(Nc3ccc4c(c3)nc(C)n4Cc3ccccc3)n2)cc1

>  <cat>
False

$$$$
>  <molecule>
COc1cc(-c2nc(SC(C)C)nc(Nc3ccccc3C)c2C#N)cc(OC)c1OC

>  <cat>
True

$$$$
>  <molecule>
COc1ccc(/C=N\N2CCOCC2)cc1OC1CCCC1

>  <cat>
True

$$$$

###

# System: PC-3 prostate
# measurement.notes: NCI-60 one-dose screen, 48 h (100 = growth as untreated, 0 = no growth, -100 = all killed)
# test.settings: 10 µM unless noted
About 83,000 compounds went through this panel and 20% of them were active in at least one assay; those are over-represented in the sample as a whole.
# cutoff 80% applies to growth; >= gives satisfied, < gives not satisfied

>  <compound>
CCCOC(=O)c1ccc2c(c1)[N+](=O)C(C(=O)c1ccccc1)=C(C(F)(F)F)[N+]2=O

>  <target.entity>
PC-3 prostate

>  <cat>
not satisfied

$$$$
>  <compound>
COC(=O)CCC(=O)c1ccccc1

>  <target.entity>
PC-3 prostate

>  <cat>
satisfied

$$$$
>  <compound>
COc1cccc2c(=O)c3c(sc12)c(NCCN(C)C)nc1ccccc13

>  <target.entity>
PC-3 prostate

>  <cat>
not satisfied

$$$$
>  <compound>
CN1CCc2c(Sc3ccc(C(=O)NO)cc3)c3ccccc3n2C1

>  <target.entity>
PC-3 prostate

>  <cat>
not satisfied

$$$$
>  <compound>
CC1(C)CC(=O)C2=C(C1)Nc1cc3c(cc1C2c1ccc(F)cc1)OCO3 (configuration not stated)

>  <target.entity>
PC-3 prostate

>  <cat>
satisfied

$$$$
>  <compound>
Cc1cccc2c(=O)c3c(sc12)c(NCCCN)nc1ccccc13

>  <target.entity>
PC-3 prostate

>  <cat>
not satisfied

$$$$
>  <compound>
COc1ccc(C2SC(C)C(=O)N2CCc2cccs2)cc1OC (configuration not stated)

>  <target.entity>
PC-3 prostate

>  <cat>
not satisfied

$$$$
>  <compound>
C=CC[P+](c1ccccc1)(c1ccccc1)c1ccccc1

>  <target.entity>
PC-3 prostate

>  <cat>
not satisfied

$$$$
>  <compound>
CC(C)OC1=C(Cl)C(=O)c2ccccc2C1=O

>  <target.entity>
PC-3 prostate

>  <cat>
not satisfied

$$$$
>  <compound>
COc1cc(C(F)(F)F)ccc1-c1cc(-c2ccc(F)cc2)n[nH]1

>  <target.entity>
PC-3 prostate

>  <cat>
not satisfied

$$$$
>  <compound>
COc1ccc(/C=N\N2CCOCC2)cc1OC1CCCC1

>  <target.entity>
PC-3 prostate

>  <cat>
satisfied

$$$$
>  <compound>
Cc1ccc(-c2nnc(COc3ccc(-c4nnc(N)s4)cc3)o2)cc1

>  <target.entity>
PC-3 prostate

>  <cat>
satisfied

$$$$
>  <compound>
c1ccc(-c2n(Cc3ccc4ccccc4c3)c3ccccc3[n+]2Cc2ccc3ccccc3c2)cc1

>  <target.entity>
PC-3 prostate

>  <cat>
not satisfied

$$$$
>  <compound>
FCOC(C(F)(F)F)C(F)(F)F

>  <target.entity>
PC-3 prostate

>  <cat>
satisfied

$$$$
